Hello, the source for this data is paper PMC12948427, in case you need it.

# assay overview: in vitro
# details: human, Calu-3 cells, cell viability, Figure S7G, peptide concentration 400000
Ends that are not written are not given here.
Catalogue of viability at 24 h readings, one per entry.
Return type: number; implicit unit %.

{"primary sequence": "GRKKRRQRRRPPQDYKDDDDK [FLAG]", "unit label": "%", "viability at 24 h": 100}

Alright, here's another sequence for you.
For GRKKRRQRRRPPQESELVIGAVILR [M146] the sequence record lists viability at 24 h as 24.4

* * *

# assay overview: in vitro
# details: Vero E6 cells, cell viability, Figure S7F, peptide concentration 120000
Ends that are not written are not given here.
readout name: viability at 24 h (%)
Return type: number; implicit unit %.

For GRKKRRQRRRPPQESELVIGAVILR [M146] the sequence record lists viability at 24 h as 88.8

* * *

# assay overview: in vitro
# details: human, Calu-3 cells, cell viability, Figure S7G, peptide concentration 800000
Ends that are not written are not given here.
Catalogue of viability at 24 h readings, one per entry.
Return type: number; implicit unit %.

{"primary sequence": "GRKKRRQRRRPPQDYKDDDDK [FLAG]", "viability at 24 h [%]": 96.8}

Alright, here's another sequence for you.
For GRKKRRQRRRPPQESELVIGAVILR [M146] the sequence record lists viability at 24 h as 13

* * *

# assay overview: in vitro
# details: mouse, 17Cl-1 cells, cell viability, Figure S7E, peptide concentration 60000
Ends that are not written are not given here.
readout name: viability at 24 h (%)
Return type: number; implicit unit %.

For GRKKRRQRRRPPQDYKDDDDK [FLAG] the sequence record lists viability at 24 h as 98.4

* * *

# assay overview: in vitro
# details: Vero E6 cells, cell viability, Figure S7F, peptide concentration 10000
Ends that are not written are not given here.
Catalogue of viability at 24 h readings, one per entry.
Please give the number followed by its unit.

For GRKKRRQRRRPPQDYKDDDDK [FLAG] the sequence record lists viability at 24 h as 105%

For GRKKRRQRRRPPQESELVIGAVILR [M146] the sequence record lists viability at 24 h as 97.7%

* * *

# assay overview: in vitro
# details: human, Calu-3 cells, cell viability, Figure S7G, peptide concentration 10000
Ends that are not written are not given here.
readout name: viability at 24 h (%)
Return type: number; implicit unit %.

{"primary sequence": "GRKKRRQRRRPPQESELVIGAVILR [M146]", "viability at 24 h [%]": 95.2}

Alright, here's another sequence for you.
For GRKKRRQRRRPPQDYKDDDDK [FLAG] the sequence record lists viability at 24 h as 92

* * *

# assay overview: in vitro
# details: human, Calu-3 cells, cell viability, Figure S7G, peptide concentration 5000
Ends that are not written are not given here.
readout name: viability at 24 h (%)
Return type: number; implicit unit %.

For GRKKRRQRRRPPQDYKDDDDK [FLAG] the sequence record lists viability at 24 h as 88.6

* * *

# assay overview: in vitro
# details: Vero E6 cells, cell viability, Figure S7F, peptide concentration 1200000
Ends that are not written are not given here.
readout name: viability at 24 h (%)
Return type: number; implicit unit %.

For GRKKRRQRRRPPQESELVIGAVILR [M146] the sequence record lists viability at 24 h as 11.4

* * *

# assay overview: in vitro
# details: human, Calu-3 cells, cell viability, Figure S7G, peptide concentration 2000
Ends that are not written are not given here.
readout name: viability at 24 h (%)
Return type: number; implicit unit %.

For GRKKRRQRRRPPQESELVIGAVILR [M146] the sequence record lists viability at 24 h as 83.8
